system: U-251; assay: NCI tumour cell line growth inhibition, 48 h
Active and inactive are the calls of the source. No stated cut-off is given here; in the data, active = GI50 up to about 1.1 µM and inactive = higher.
QUANTITY: GI50

Sample answers from the record:
INSERT INTO assay_data (compound, quantity, result) VALUES
  ('COc1ccc(CNc2cc(OC)cc(OC)c2)cc1', 'GI50', '> 88.5 µM (inactive)'),
  ('O=C1C2C3CC4C5C3C1C5C1(SCCS1)C42 (configuration not stated)', 'GI50', '> 100 µM (inactive)'),
  ('Cc1cc(C=O)c2c(=O)c3c(O)ccc(/C=C/C(C)C)c3oc2c1', 'GI50', '41.1 µM (inactive)'),
  ('COc1ccc(/C=C/C(=O)c2ccc(OC(=O)/C=C/c3ccccc3)cc2)cc1', 'GI50', '19 µM (inactive)'),
  ('COC(=O)C1(C(=O)OC)N=C(C)OC1C(C)C (configuration not stated)', 'GI50', '> 100 µM (inactive)');

I'm hoping you can list GI50 for every compound here, please.
1. N#C/N=C(\NCCc1c[nH]c2ccccc12)NCc1ccccc1
2. O=C(CSc1nnc(Cc2ccccc2)o1)Nc1ccccc1Cl
3. O=C(NN1C(=O)C(Cl)C1c1ccccc1O)c1ccccc1O (configuration not stated)
4. C=C1CC2(OC1=O)c1ccccc1CCc1ccccc12
5. O=C(NN=C1NCCN1)c1ccco1
6. COc1cc(/C=C2\N=C(c3ccccc3)N(c3ccc4c(c3)Sc3cc(N5C(=O)/C(=C/c6cc(OC)c(OC)c(OC)c6)N=C5c5ccccc5)ccc3N4)C2=O)cc(OC)c1OC
7. CN(C)c1ncnc2c1ncn2C1C=CC(COS(N)(=O)=O)C1 (configuration not stated)

Completion:
["35.2 µM (inactive)", "> 100 µM (inactive)", "16.2 µM (inactive)", "9.12 µM (inactive)", "> 100 µM (inactive)", "21 µM (inactive)", "> 100 µM (inactive)"]

* * *

system: UO-31; test: NCI tumour cell line growth inhibition, 48 h
Calls of active or inactive are those of the source. No stated cut-off is given here; in the data, active = GI50 up to about 1.1 µM and inactive = higher.
Provide the recorded GI50 for the entries that follow.

INSERT INTO assay_data (compound, study_target, quantity, result) VALUES
  ('C[C@]12CC[C@H]3[C@@H](CC=C4C[C@@H](N5CCCC5)CC[C@@]43C)[C@@H]1C[C@H](N1CCCCC1)[C@@H]2O', 'UO-31', 'GI50', '> 100 µM (inactive)'),
  ('CC1=NN=C(N)NC1=CC(Sc1ccc(Cl)cc1)c1c(O)ccc2ccccc12 (stereo not drawn)', 'UO-31', 'GI50', '6.07 µM (inactive)'),
  ('CS(=O)(=O)Nc1ccc(Nc2c3ccccc3nc3ccccc23)cc1', 'UO-31', 'GI50', '2.23 µM (inactive)'),
  ('Cc1cccc2c1Oc1cc(Cl)ccc1C2NC(=O)CCN1CCN(CCO)CC1 (stereo not drawn)', 'UO-31', 'GI50', '12.8 µM (inactive)'),
  ('O=C1NC(=S)NC(=O)C1C(c1ccc([N+](=O)[O-])cc1)C1C(=O)NC(=S)NC1=O.c1ccncc1', 'UO-31', 'GI50', '> 100 µM (inactive)');

Give GI50 for all compounds that follow.
1. CCOC(=O)c1c(-c2ccccc2)nc2ccccc2c1O
2. NC(C/C=C/P(=O)(O)O)C(=O)O (stereo not drawn)
3. FC(F)(F)c1ccc(/C=N/C23CC4CC(CC(C4)C2)C3)cc1

Completion:
1: > 100 µM (inactive); 2: > 100 µM (inactive); 3: > 100 µM (inactive)
